Tested on: Calu-3
EXPERIMENT SUMMARY: cell viability relative to DMSO; higher = less toxic
ASSAY CONTEXT: 72 h; 10 nM
RECORDED METRIC: cell viability (%)
Write it as a number; the unit % goes unstated.

Example cases with answers are listed next.
[ask] Suppose we examine the compound "CCN1CCN(C(=O)N[C@@H](C(=O)N[C@@H]2C(=O)N3C(C(=O)O)=C(CSc4nnnn4C)CS[C@H]23)c2ccc(O)cc2)C(=O)C1=O" ; what cell viability value has been reported?
[reply] 101

[ask] Try this compound next: "O[C@H]1[C@H](O)[C@@H](O)CN2CC[C@H](O)[C@H]12"
[reply] 96.6

[ask] Try this compound next: "CCN[C@@H](C)Cc1cccc(C(F)(F)F)c1"
[reply] 109

[ask] Try this compound next: "CCO[C@H]1O[C@@H]2O[C@@]3(C)CC[C@H]4[C@H](C)CC[C@@H]([C@H]1C)[C@@]24OO3"
[reply] 109

[ask] Try this compound next: "C[C@@H]1CC[C@@]2(OC1)O[C@H]1C[C@H]3[C@@H]4CC=C5C[C@@H](O)CC[C@]5(C)[C@H]4CC[C@]3(C)[C@H]1[C@@H]2C"
[reply] 91.3

Next:
[ask] Suppose we examine the compound "CC(C)CN(C[C@@H](O)[C@H](Cc1ccccc1)NC(=O)O[C@H]1CCOC1)S(=O)(=O)c1ccc(N)cc1" ; what cell viability value has been reported?
[reply] 102

[ask] Try this compound next: COc1cc(C(=O)NC2CCCNC2)cc(OC)c1OC (stereo not drawn) [troxipide]
[reply] 91.3

[ask] Try this compound next: "c1cc(CN2CCCNCCNCCCNCC2)ccc1CN1CCCNCCNCCCNCC1"
[reply] 104

====

Tested on: U2OS
EXPERIMENT SUMMARY: cell viability relative to DMSO; higher = less toxic
ASSAY CONTEXT: 72 h; 100 nM
RECORDED METRIC: cell viability
Number first, unit second: that is the form wanted.

[ask] Suppose we examine the compound C[C@@H](O[C@H]1OCCN(Cc2nn(P(=O)(O)O)c(=O)[nH]2)[C@H]1c1ccc(F)cc1)c1cc(C(F)(F)F)cc(C(F)(F)F)c1 [fosaprepitant-dimeglumine] ; what cell viability value has been reported?
[reply] 95.4%

[ask] Try this compound next: "COc1cc(/C=C/C(=O)O)ccc1O"
[reply] 99.9%

[ask] Try this compound next: NNc1nncc2ccccc12 [hydralazine]
[reply] 99.4%

[ask] Try this compound next: "O=C(OCCN1CCOCC1)C1(c2ccccc2)CCCCC1"
[reply] 96.5%

[ask] Try this compound next: "CCc1ccc(C2=CC(C)(C)Sc3ccc(C#Cc4ccc(C(=O)O)cc4)cc32)cc1"
[reply] 96.6%

Next:
[ask] Suppose we examine the compound "CCCCCCOc1cc2c(cc1N(C)c1ncc(C(=O)O)cn1)C(C)(C)CCC2(C)C" ; what cell viability value has been reported?
[reply] 97%

[ask] Try this compound next: "O=C1NC(=O)c2c1c1c3ccccc3n3c1c1c2c2ccccc2n1C1CCC3O1"
[reply] 91.1%

[ask] Try this compound next: CC1(C)CC(=O)C(C2C3=C(CC(C)(C)CC3=O)Oc3ccccc32)C(=O)C1 (centres undefined)
[reply] 95%

[ask] Try this compound next: CCCCCCCCCCCCOS(=O)(=O)O [dodecyl-sulfate]
[reply] 102%
